Hey, just so you know, these numbers are from ChEMBL document CHEMBL3045244.

# System: Klebsiella pneumoniae
# experimentalDetails: Antibacterial activity against Klebsiella pneumoniae ATCC 15499 after 24 hr by two-fold serial dilution method
# Type: functional
# measurementSetup: ATCC 15499, 24 h
measuredEndpoint: MIC (µg/mL)
Supply the numeric figure in µg/mL, leaving out any unit text.

Previously resolved entries follow.
Look at this compound and give its reported MIC. CCOC(=O)N1CCN(CC(=O)N2C(c3cccc(F)c3)C(C)C(=O)C(C)C2c2cccc(F)c2)CC1 (stereo not given)
100

Look at this compound and give its reported MIC. CCOC(=O)N1CCN(CC(=O)N2C(c3ccc(F)cc3)CC(=O)C(C)C2c2ccc(F)cc2)CC1 (stereo not given)
12.5

Look at this compound and give its reported MIC. CCOC(=O)N1CCN(CC(=O)N2C(c3ccc(Cl)cc3)C(C)C(=O)C(C)C2c2ccc(Cl)cc2)CC1 (stereo not given)
50

Look at this compound and give its reported MIC. CCOC(=O)N1CCN(CC(=O)N2C(c3ccccc3)CC(=O)C(C)C2c2ccccc2)CC1 (stereo not given)
200

Look at this compound and give its reported MIC. CC1(C)S[C@@H]2[C@H](NC(=O)Cc3ccccc3)C(=O)N2[C@H]1C(=O)O [PENICILLIN G]
25

***
Look at this compound and give its reported MIC. CCOC(=O)N1CCN(CC(=O)N2C(c3ccc(OC)cc3)C(C)C(=O)C(C)C2c2ccc(OC)cc2)CC1 (stereo not given)
100

Look at this compound and give its reported MIC. CCOC(=O)N1CCN(CC(=O)N2C(c3ccc(F)cc3)CC(=O)C(CC)C2c2ccc(F)cc2)CC1 (stereo not given)
12.5

Look at this compound and give its reported MIC. CCOC(=O)N1CCN(CC(=O)N2C(c3cccc(F)c3)CC(=O)C(C)C2c2cccc(F)c2)CC1 (stereo not given)
6.25

Look at this compound and give its reported MIC. CCOC(=O)N1CCN(CC(=O)N2C(c3ccc(C)cc3)CC(=O)C(C)C2c2ccc(C)cc2)CC1 (stereo not given)
100

Look at this compound and give its reported MIC. CCOC(=O)N1CCN(CC(=O)N2C(c3ccccc3)C(C)C(=O)C(C)C2c2ccccc2)CC1 (stereo not given)
50

====

Some compounds, each annotated with its measured MIC.
# Tested on: Candida albicans
# experimentalDetails: Antifungal activity against Candida albicans ATCC 3130 after 72 to 96 hr by two-fold serial dilution method
# Format: functional
Supply the numeric figure in µg/mL, leaving out any unit text.

Previously resolved entries follow.
Look at this compound and give its reported MIC. CCOC(=O)N1CCN(CC(=O)N2C(c3cccc(F)c3)C(C)C(=O)C(C)C2c2cccc(F)c2)CC1 (centres undefined)
100

Look at this compound and give its reported MIC. CCOC(=O)N1CCN(CC(=O)N2C(c3ccc(F)cc3)CC(=O)C(C)C2c2ccc(F)cc2)CC1 (centres undefined)
25

Look at this compound and give its reported MIC. CCOC(=O)N1CCN(CC(=O)N2C(c3ccccc3)C(C)C(=O)C(C)C2c2ccccc2)CC1 (centres undefined)
100

***
Look at this compound and give its reported MIC. CCOC(=O)N1CCN(CC(=O)N2C(c3ccc(C)cc3)CC(=O)C(C)C2c2ccc(C)cc2)CC1 (centres undefined)
200

Look at this compound and give its reported MIC. CCOC(=O)N1CCN(CC(=O)N2C(c3ccc(Cl)cc3)C(C)C(=O)C(C)C2c2ccc(Cl)cc2)CC1 (centres undefined)
100

Look at this compound and give its reported MIC. CCOC(=O)N1CCN(CC(=O)N2C(c3ccc(F)cc3)CC(=O)C(CC)C2c2ccc(F)cc2)CC1 (centres undefined)
50

Look at this compound and give its reported MIC. C[C@@H]1[C@H](O)[C@@H](C)/C=C/C=C/C=C/C=C/C=C/C=C/C=C/[C@H](O[C@@H]2O[C@H](C)[C@@H](O)[C@H](N)[C@@H]2O)C[C@@H]2O[C@](O)(C[C@@H](O)C[C@@H](O)[C@H](O)CC[C@@H](O)C[C@@H](O)CC(=O)O[C@H]1C)C[C@H](O)[C@H]2C(=O)O
25

Look at this compound and give its reported MIC. CCOC(=O)N1CCN(CC(=O)N2C(c3ccccc3)CC(=O)C(CC)C2c2ccccc2)CC1 (centres undefined)
12.5

Look at this compound and give its reported MIC. CCOC(=O)N1CCN(CC(=O)N2C(c3cccc(F)c3)CC(=O)C(C)C2c2cccc(F)c2)CC1 (centres undefined)
6.25
